tested on: 67nR; assay: cells; conditions: 72 h, read-out: 67nR
Assignment: determine reported pIC50 for the given molecules.
The value called pIC50 is obtained by taking minus log10 of the concentration in mol/L.

Memo: "CC(C)[Si](Oc1ccc([N+](=O)[O-])c2cccnc12)(C(C)C)C(C)C" , reported pIC50: 4.84

Memo: "CS(=O)(=O)Oc1ccc([N+](=O)[O-])c2cccnc12" , reported pIC50: 4.60

Memo: "CC(C)(C)[Si](C)(C)Oc1ccc([N+](=O)[O-])c2cccnc12" , reported pIC50: 4.63

Memo: "CC(C)(C)[Si](Oc1ccc([N+](=O)[O-])c2cccnc12)(c1ccccc1)c1ccccc1" , reported pIC50: 4.81

Memo: "O=[N+]([O-])c1ccc(O)c2ncccc12" , reported pIC50: 4.77

Memo: "O=[N+]([O-])c1ccc(OS(=O)(=O)C(F)(F)F)c2ncccc12" , reported pIC50: 4.99

----------
system: MIA PaCa; test: cells; conditions: Homo sapiens, MIA PaCa-2, 72 h, read-out: MIA PaCa
I'd appreciate it if you marked entries yes (1) when IC50 is lower than 10 µM and no (0) when it is not.

Incoming: Bench note: check whether "O=[N+]([O-])c1ccc(OS(=O)(=O)C(F)(F)F)c2ncccc12" shows IC50 below 10 µM
Outgoing: yes (1)

Incoming: Bench note: check whether "CC(C)(C)[Si](C)(C)Oc1ccc([N+](=O)[O-])c2cccnc12" shows IC50 below 10 µM
Outgoing: no (0)

Incoming: Bench note: check whether "O=[N+]([O-])c1ccc(O)c2ncccc12" shows IC50 below 10 µM
Outgoing: no (0)

Incoming: Bench note: check whether "O=[N+]([O-])c1ccc(OCOCc2ccccc2)c2ncccc12" shows IC50 below 10 µM
Outgoing: no (0)

Incoming: Bench note: check whether "C[Si](C)(C)CCOCOc1ccc([N+](=O)[O-])c2cccnc12" shows IC50 below 10 µM
Outgoing: no (0)

Every entry's value here was drawn from paper doi:10.1101/2025.10.20.683482v1.
